MEASUREMENT KIND: IC50 (nM)
Give the value, in units of nM, as a plain number.

Identify the measured IC50 of C=CC(=O)Nc1cc(CN2CCOCC2)cc(Nc2ncc(Cl)c(Nc3ccc4ccccc4c3)n2)c1 for IGF-1R (Homo sapiens, UniProt P08069). 138

Report IC50 for COc1ccc(NC(=O)/C=C/CN(C)C)cc1Nc1ncc(OC)c(Nc2ccc3ccccc3c2)n1 tested on IGF-1R (Homo sapiens, UniProt P08069). 182

IC50 of C=CC(=O)Nc1cccc(Nc2nc(Nc3ccc(N4CCN(C(C)=O)CC4)cc3OC)ncc2C(F)(F)F)c1 [CO1686, reference compound] on IGF-1R (Homo sapiens, UniProt P08069)? 1320

Reported IC50 for IGF-1R (Homo sapiens, UniProt P08069), given C=CC(=O)Nc1cc(CN2CCN(C)CC2)cc(Nc2ncc(Cl)c(Nc3ccc4ccccc4c3)n2)c1 ? 73.3

Give IC50 (IGF-1R (Homo sapiens, UniProt P08069)) of the following compound: CCOc1ccc(NC(=O)/C=C/CN(C)C)cc1Nc1ncc(Br)c(Nc2ccc3ccccc3c2)n1 86.4

Notebook: pull reported IC50 for IGF-1R (Homo sapiens, UniProt P08069), entry COc1cc(F)c(NC(=O)/C=C/CN(C)C)cc1Nc1ncc(Cl)c(Nc2ccc3ccccc3c2)n1 195

Lab note: need IC50 with IGF-1R (Homo sapiens, UniProt P08069) for entry COc1ccc(NC(=O)/C=C/CN(C)C)cc1Nc1ncc(C)c(Nc2ccc3ccccc3c2)n1 , please look it up. 103

// fetch IGF-1R (Homo sapiens, UniProt P08069) IC50 for COc1ccc(NC(=O)/C=C/CN(C)C)cc1Nc1ncc(C(F)(F)F)c(Nc2ccc3ccccc3c2)n1 41

# returns recorded IC50 (system: IGF-1R (Homo sapiens, UniProt P08069)) for COc1ccc(NC(=O)/C=C/CN(C)C)cc1Nc1ncc(Cl)c(Nc2ccc3[nH]ccc3c2)n1 38

Request - read-out IC50 | tested on IGF-1R (Homo sapiens, UniProt P08069) | compound CN(C)C/C=C/C(=O)Nc1cccc(Nc2ncc(Cl)c(Nc3ccc4ccccc4c3)n2)c1 170

Lab note: need IC50 with IGF-1R (Homo sapiens, UniProt P08069) for entry C=CC(=O)Nc1cc(Nc2ncc(Cl)c(Nc3ccc4ccccc4c3)n2)c(OC)cc1N1CCN(C(C)=O)CC1 , please look it up. 19.8

Kindly state the measured IC50 obtained for C=CC(=O)Nc1cc(Nc2ncc(Cl)c(Nc3ccc4ccccc4c3)n2)c(OC)cc1N1CCOCC1 with IGF-1R (Homo sapiens, UniProt P08069). 18.7

---

Record form. Attribute: IC50. Fill in for each entry.
biological target: EGFR^T790M/L858R (Homo sapiens, UniProt P00533, L858R/T790M); test: kinase inhibitory activity test (ELISA), EGFR^T790M/L858R; conditions: ELISA, ATP 5 μM, 1 hour at 37° C.
Sequence (P00533 25-1210 T790M/L858R): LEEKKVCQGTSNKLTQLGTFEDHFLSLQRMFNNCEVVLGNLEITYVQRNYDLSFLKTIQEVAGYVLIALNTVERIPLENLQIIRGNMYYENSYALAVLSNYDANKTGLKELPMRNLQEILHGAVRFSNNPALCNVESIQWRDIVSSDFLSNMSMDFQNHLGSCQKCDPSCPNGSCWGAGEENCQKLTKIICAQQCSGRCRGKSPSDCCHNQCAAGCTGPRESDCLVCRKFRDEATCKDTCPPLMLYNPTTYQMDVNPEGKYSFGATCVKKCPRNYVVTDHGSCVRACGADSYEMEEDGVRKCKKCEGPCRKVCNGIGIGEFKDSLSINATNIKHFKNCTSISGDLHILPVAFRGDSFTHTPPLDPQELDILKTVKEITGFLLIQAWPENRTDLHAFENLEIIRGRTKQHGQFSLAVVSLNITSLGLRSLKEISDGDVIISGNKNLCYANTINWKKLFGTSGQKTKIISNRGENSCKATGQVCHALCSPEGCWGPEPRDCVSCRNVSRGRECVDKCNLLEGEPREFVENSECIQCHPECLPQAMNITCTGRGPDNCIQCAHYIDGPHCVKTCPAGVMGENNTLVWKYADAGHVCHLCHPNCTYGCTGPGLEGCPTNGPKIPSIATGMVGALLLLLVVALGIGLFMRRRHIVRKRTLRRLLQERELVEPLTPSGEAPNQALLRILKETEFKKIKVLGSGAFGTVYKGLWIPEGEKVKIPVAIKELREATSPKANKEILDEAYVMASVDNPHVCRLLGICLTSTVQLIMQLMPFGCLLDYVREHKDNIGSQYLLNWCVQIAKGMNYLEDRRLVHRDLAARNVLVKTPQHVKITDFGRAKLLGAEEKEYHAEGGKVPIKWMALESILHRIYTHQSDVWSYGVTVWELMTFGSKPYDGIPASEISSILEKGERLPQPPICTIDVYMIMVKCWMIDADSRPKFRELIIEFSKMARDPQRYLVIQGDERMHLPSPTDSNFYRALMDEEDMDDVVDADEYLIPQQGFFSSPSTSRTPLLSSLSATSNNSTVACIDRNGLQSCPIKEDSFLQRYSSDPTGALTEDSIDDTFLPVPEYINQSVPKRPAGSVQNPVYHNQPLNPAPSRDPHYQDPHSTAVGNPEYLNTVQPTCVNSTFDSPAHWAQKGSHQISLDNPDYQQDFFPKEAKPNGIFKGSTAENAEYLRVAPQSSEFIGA
The answer is to be given in nM; state only the numeric part.

Given the entry CC(C)Oc1ccc(NC(=O)/C=C/CN(C)C)cc1Nc1ncc(Cl)c(Nc2ccc3ccccc3c2)n1 , what IC50 was observed with EGFR^T790M/L858R (Homo sapiens, UniProt P00533, L858R/T790M)? 266

Hi! What's the reported IC50 for C=CC(=O)Nc1cc(Nc2ncc(Cl)c(Nc3ccc4ccccc4c3)n2)c(OC)cc1N1CCN(C)CC1 on EGFR^T790M/L858R (Homo sapiens, UniProt P00533, L858R/T790M)? 1.6

For the record C=CC(=O)Nc1cc(Nc2ncc(Cl)c(Nc3ccc4ccccc4c3)n2)c(OC)cc1N1CCC(N(C)C)C1 (stereo not shown) , what value of IC50 is listed for EGFR^T790M/L858R (Homo sapiens, UniProt P00533, L858R/T790M)? 0.3

Return IC50 measured with EGFR^T790M/L858R (Homo sapiens, UniProt P00533, L858R/T790M) given this compound: Cc1ccc(Nc2ncc(Br)c(Nc3ccc4ccccc4c3)n2)cc1NC(=O)/C=C/CN(C)C 42.5

What measured IC50 is associated with C=CC(=O)Nc1cc(Nc2ncc(Cl)c(Nc3ccc4ccccc4c3)n2)c(OC)cc1N(C)CCNC on EGFR^T790M/L858R (Homo sapiens, UniProt P00533, L858R/T790M)? 2.2

IC50 of C=CC(=O)Nc1cc(CN(C)C)cc(Nc2ncc(Cl)c(Nc3ccc4ccccc4c3)n2)c1 on EGFR^T790M/L858R (Homo sapiens, UniProt P00533, L858R/T790M)? 5.1

Missing value: IC50, EGFR^T790M/L858R (Homo sapiens, UniProt P00533, L858R/T790M), entry C=CC(=O)Nc1cc(CN2CCN(C)CC2)cc(Nc2ncc(Cl)c(Nc3ccc4ccccc4c3)n2)c1 . Fill in? 3.1

Query IC50 on EGFR^T790M/L858R (Homo sapiens, UniProt P00533, L858R/T790M) for COc1ccc(NC(=O)/C=C/CN(C)C)cc1Nc1ncc(Cl)c(Sc2ccc3ccccc3c2)n1 159

# query: IC50 | item CN(C)C/C=C/C(=O)Nc1cccc(Nc2ncc(Br)c(Nc3ccc4ccccc4c3)n2)c1 | system: EGFR^T790M/L858R (Homo sapiens, UniProt P00533, L858R/T790M) 35.7

Request - read-out IC50 | tested on EGFR^T790M/L858R (Homo sapiens, UniProt P00533, L858R/T790M) | compound CN(C)C/C=C/C(=O)Nc1ccc(F)c(Nc2ncc(Cl)c(Nc3ccc4ccccc4c3)n2)c1 55.7

Observed IC50 on EGFR^T790M/L858R (Homo sapiens, UniProt P00533, L858R/T790M) for C=CC(=O)Nc1cc(Nc2ncc(Cl)c(Nc3ccc4ccccc4c3)n2)c(OC)cc1N1CCN(C(C)=O)CC1 , please. 21.5

So what IC50 did Cc1ccc(NC(=O)/C=C/CN(C)C)cc1Nc1ncc(Br)c(Nc2ccc3ccccc3c2)n1 get with EGFR^T790M/L858R (Homo sapiens, UniProt P00533, L858R/T790M)? 73.2

Recall the recorded IC50 for COc1ccc(NC(=O)/C=C/CN(C)C)cc1Nc1ncc(OC)c(Nc2ccc3ccccc3c2)n1 with EGFR^T790M/L858R (Homo sapiens, UniProt P00533, L858R/T790M) and state it. 102

Form: Entry = COc1ccc(NC(=O)/C=C/CN(C)C)cc1Nc1ncc(Cl)c(Nc2ccc3[nH]ccc3c2)n1 | System = EGFR^T790M/L858R (Homo sapiens, UniProt P00533, L858R/T790M) | IC50 = ____ 30.8

Lab note: need IC50 for COc1ccc(NC(=O)/C=C/CN2CCOCC2)cc1Nc1ncc(Cl)c(Nc2ccc3ccccc3c2)n1 on EGFR^T790M/L858R (Homo sapiens, UniProt P00533, L858R/T790M), anyone have it? 11.9

For EGFR^T790M/L858R (Homo sapiens, UniProt P00533, L858R/T790M), provide IC50 of C=CC(=O)Nc1cc(CN2CCOCC2)cc(Nc2ncc(Cl)c(Nc3ccc4ccccc4c3)n2)c1 please. 4.1

---

system: human non-small cell lung cancer NCI-H1975 cell line; assay: SRB proliferation assay, NCI-H1975 cells; format: cell-based; conditions: NCI-H1975, SRB, 72 h, read-out: IC50 NCI-H1975
MEASUREMENT KIND: pIC50
Please report pIC50 as the negative decimal logarithm of the molar concentration, giving only the number.

pIC50 lookup needed for Cc1ccc(Nc2ncc(Cl)c(Nc3ccc4ccccc4c3)n2)cc1NC(=O)/C=C/CN(C)C , thanks. 6.22

Consider the compound shown here: C=CC(=O)Nc1ccc(OC)c(Nc2ncc(Cl)c(Nc3ccc4ccccc4c3)n2)c1 What is its recorded pIC50? 6.39

Looking for the measured pIC50 of COc1ccc(NC(=O)/C=C/CN(C)C)cc1Nc1ncc(Cl)c(N(C)c2ccc3ccccc3c2)n1 , can you help? 5.93

Which pIC50 is listed for CN(C)C/C=C/C(=O)Nc1cccc(Nc2ncc(Br)c(Nc3ccc4ccccc4c3)n2)c1 ? 5.61

Sample COc1ccc(NC(=O)/C=C/CN(C)C)cc1Nc1ncc(Br)c(Nc2ccc3ccccc3c2)n1 — what was its pIC50? 6.38

# get_value(readout='pIC50', item= COc1ccc(NC(=O)/C=C/CN2CCOCC2)cc1Nc1ncc(Cl)c(Nc2ccc3ccccc3c2)n1 ) 6.05

# pIC50 lookup, item Cc1ccc(Nc2ncc(Br)c(Nc3ccc4ccccc4c3)n2)cc1NC(=O)/C=C/CN(C)C 5.96

What does the data say about its pIC50? Entry: COc1ccc(NC(=O)/C=C/CN(C)C)cc1Nc1nccc(Nc2ccc3ccccc3c2)n1 6.05

Give the measured pIC50 of C=CC(=O)Nc1cc(CN(C)CCN(C)C)cc(Nc2ncc(Cl)c(Nc3ccc4ccccc4c3)n2)c1 . 6.83

I am curious: what pIC50 value has been reported for Cc1cc(NC(=O)/C=C/CN(C)C)cc(Nc2ncc(Cl)c(Nc3ccc4ccccc4c3)n2)c1 ? 6.03

Endpoint output: pIC50 of CCOc1ccc(NC(=O)/C=C/CN(C)C)cc1Nc1ncc(Cl)c(Nc2ccc3ccccc3c2)n1 . Value? 5.93

Given COc1ccc(NC(=O)/C=C/CN(C)C)cc1Nc1ncc(Cl)c(Sc2ccc3ccccc3c2)n1 , state its recorded pIC50. 5.56

Recorded pIC50 of COc1ccc(NC(=O)/C=C/CN(C)C)cc1Nc1ncc(Cl)c(Nc2cnc3ccccc3c2)n1 , please. 6.77

Returns the measured pIC50 for the input compound. Input: Cc1cc(NC(=O)/C=C/CN(C)C)cc(Nc2ncc(Br)c(Nc3ccc4ccccc4c3)n2)c1 5.90

Suppose we examine the compound CN(C)C/C=C/C(=O)Nc1ccc(F)c(Nc2ncc(Cl)c(Nc3ccc4ccccc4c3)n2)c1 ; what pIC50 value has been reported? 5.97

Bench note: what pIC50 did C=CC(=O)Nc1cc(CN2CCOCC2)cc(Nc2ncc(Cl)c(Nc3ccc4ccccc4c3)n2)c1 show? 6.51
